Origin of the recorded values: PubChem BioAssay (NCI)

Catalogue of compounds with associated TGI
System: A549 NSCLC
Assay: NCI tumour cell line growth inhibition, 48 h

As a guide, the following entries are already answered.
COC(=O)/C=C/c1cc2c(cc1-c1c(C(=O)O)cc(OC)c(OC)c1OC)OCO2 : > 10 µM
CCN(CC)c1ccc(C(=O)c2ccc(N(CC)CC)cc2)cc1 : > 58.1 µM
COC(=O)c1ccccc1C1CN=NC12Cc1cc(C)ccc1C2=O (configuration not stated) : > 100 µM
C=C(C)[C@@H]1CCC2=C[C@H](OC2=O)[C@@]2(C)C[C@@H]2C2=CC(C)=C(O2)[C@H]1O : > 75 µM
CCOC(=O)c1c(N2CCOCC2)[nH]c(=O)c(C(c2ccco2)c2c(O)c(C(=O)OCC)c(N3CCOCC3)[nH]c2=O)c1O : > 100 µM

Task: # query: TGI of entry `N#Cc1c(N)nc(Sc2ccccc2N)c(C#N)c1-c1ccc(Cl)cc1`
Output: > 75.2 µM

Task: Ok, now `COc1ccc2c(c1)CCc1c-2n(CCN2CCCCC2)c2ccc(OC)cc12`
Output: > 100 µM

Task: Ok, now COc1ccc(/C=C2\CCC(C)C3=C2N=c2s/c(=C/c4cccc(Br)c4)c(=O)n2C3c2ccc(OC)c(OC)c2)cc1OC (configuration not stated)
Output: > 100 µM

Task: Ok, now `Nc1nc2c3nc(Nc4ccccc4)sc3nc(=O)n2c2sc(Nc3ccccc3)nc12`
Output: > 100 µM

Task: Ok, now `CC(=O)OCc1ccc2oc(=O)c(C(=O)Oc3ccccc3)cc2c1`
Output: > 100 µM

Task: Ok, now COc1ccc(C2ON(c3cccc(C)n3)CC=C2C)cc1 (configuration not stated)
Output: > 100 µM

Task: Ok, now `COc1cc(CNNC(N)=S)cc(OC)c1OC`
Output: > 100 µM

###

Catalogue of compounds with associated TGI
System: PC-3 prostate
Assay: NCI tumour cell line growth inhibition, 48 h

Task: # query: TGI of entry `C=C(C)[C@@H]1CCC2=C[C@H](OC2=O)[C@@]2(C)C[C@@H]2C2=CC(C)=C(O2)[C@H]1O`
Output: > 75 µM

Task: Ok, now `COC(=O)/C=C/c1cc2c(cc1-c1c(C(=O)O)cc(OC)c(OC)c1OC)OCO2`
Output: > 10 µM

Task: Ok, now `CC1(C)OCC=CCO1`
Output: > 100 µM

Task: Ok, now `C/C(=N\NC(=S)NCCCNC(=S)N/N=C(\C)c1ccccn1)c1ccccn1`
Output: > 91.5 µM

Task: Ok, now `CCOC(=O)NC(Nc1ccc(C(=O)OCC)cc1)(C(F)(F)F)C(F)(F)F`
Output: > 100 µM

Task: Ok, now `N#C/C(N)=C(\C#N)NC(=O)C(=O)N/C(C#N)=C(\N)C#N`
Output: > 100 µM

###

Catalogue of molecules with associated TGI
Tested on: CAKI-1 renal
Assay: NCI tumour cell line growth inhibition, 48 h

Cc1cc(Cl)ccc1NC(=O)CC1SC(=Nc2ccccc2Cl)NC1=O (stereo not drawn) : > 100 µM
COc1cc2c(cc1OCCCC(=O)Nc1ccc3ccc4cccc5ccc1c3c45)N=C[C@@H]1CCCN1C2=O : 1.63 µM
CN(C)c1nc(Cl)c2c(-c3ccccc3)c(-c3ccccc3)oc2n1 : > 100 µM
COc1cccc(NC(=O)/C(Cc2nc3ccccc3nc2C)=N/NC(=O)C[n+]2ccccc2)c1 : > 100 µM
CC(C)(c1ccccc1)c1ccc(OC#N)cc1 : > 100 µM

Task: # query: TGI of entry COc1cc(C(O)(CC#N)c2cc3c(cc2Br)OCO3)cc(OC)c1OC (stereo not drawn)
Output: 75.8 µM

Task: Ok, now `C=C(C)[C@@H]1CCC2=C[C@H](OC2=O)[C@@]2(C)C[C@@H]2C2=CC(C)=C(O2)[C@H]1O`
Output: > 75 µM

Task: Ok, now COc1cc(/C=c2\sc3n(c2=O)C(c2ccc(Cl)cc2)C2=C(CCCC2C)N=3)cc(OC)c1OC (stereo not drawn)
Output: > 100 µM

Task: Ok, now `COc1ccc(C(=O)/C=C/c2cc(O)c(O)c(F)c2F)c(OC)c1`
Output: > 100 µM

Task: Ok, now `Cn1cc(C(=O)C[n+]2ccccc2)c2ccccc21`
Output: > 100 µM

Task: Ok, now `BrC(c1cccc2ccccc12)c1cccc2ccccc12`
Output: 50.1 µM

Task: Ok, now `O=C(Nc1nc(C23CC4CC(CC(C4)C2)C3)cs1)c1cc2ccccc2oc1=O`
Output: > 100 µM

Task: Ok, now `COc1cc2c(cc1OC)/C(=C\c1ccccc1N)C(=O)OC2`
Output: 27.1 µM

Task: Ok, now N#Cc1cnc(N)nc1NCC1(CO)CC(CCc2ccccc2)C1 (stereo not drawn)
Output: > 100 µM

Task: Ok, now `O=[N+]([O-])c1ccc(N/N=C/c2ccc(OCCCCCCCCCCCO)cc2)c([N+](=O)[O-])c1`
Output: 8.94 µM

Task: Ok, now `N#C/C(N)=C(\C#N)NC(=O)C(=O)N/C(C#N)=C(\N)C#N`
Output: > 100 µM

Task: Ok, now `C=C(Br)CNC(=O)CCC(=O)NCC(=C)Br`
Output: > 100 µM

Task: Ok, now COC(=O)c1ccccc1C1CN=NC12Cc1cc(C)ccc1C2=O (stereo not drawn)
Output: > 100 µM
